STUDY_SYSTEM: BvYcgR
TEST_DESCRIPTION: chemiluminescence
Format: binding
MEASUREMENT_CONTEXT: read-out: KD^a; 50 nM protein; 50 mM HEPES pH 7.2, 100 mM KCl, 10 mM DTT, 0.1% BSA; 28 °C
ENDPOINT_LABEL: Kd (µM)
Answer in µM, number only, no unit symbol.

Per the record, Nc1nc2c(ncn2[C@@H]2O[C@@H]3COP(=O)(O)O[C@H]4[C@@H](O)[C@H](n5cnc6c(=O)[nH]c(N)nc65)O[C@@H]4COP(=O)(O)O[C@H]3[C@H]2O)c(=O)[nH]1 has Kd of 0.105

###

STUDY_SYSTEM: ToYcgR
TEST_DESCRIPTION: chemiluminescence
Assay type: binding
MEASUREMENT_CONTEXT: read-out: KD^a; 50 nM protein; 50 mM HEPES pH 7.2, 100 mM KCl, 10 mM DTT, 0.1% BSA; 28 °C
ENDPOINT_LABEL: pKd
In plain terms, pKd is the concentration in mol/L turned into minus its base-10 logarithm.

Record for Nc1nc2c(ncn2[C@@H]2O[C@@H]3COP(=O)(O)O[C@H]4[C@@H](O)[C@H](n5cnc6c(=O)[nH]c(N)nc65)O[C@@H]4COP(=O)(O)O[C@H]3[C@H]2O)c(=O)[nH]1 [c-di-GMP] under target or system ToYcgR: pKd reported as 6.42

###

STUDY_SYSTEM: PtYcgR
TEST_DESCRIPTION: chemiluminescence
MEASUREMENT_CONTEXT: read-out: KD^a; 50 nM protein; 50 mM HEPES pH 7.2, 100 mM KCl, 10 mM DTT, 0.1% BSA; 28 °C
ENDPOINT_LABEL: Kd

Lab note: measured Kd of Nc1nc2c(ncn2[C@@H]2O[C@@H]3COP(=O)(O)O[C@H]4[C@@H](O)[C@H](n5cnc6c(=O)[nH]c(N)nc65)O[C@@H]4COP(=O)(O)O[C@H]3[C@H]2O)c(=O)[nH]1 was < 50 nM

###

STUDY_SYSTEM: DnYcgR
TEST_DESCRIPTION: chemiluminescence
MEASUREMENT_CONTEXT: read-out: KD^a; 50 nM protein; 50 mM HEPES pH 7.2, 100 mM KCl, 10 mM DTT, 0.1% BSA; 28 °C
ENDPOINT_LABEL: pKd
Scale note: pKd = -log10(concentration in M).

I looked up Nc1nc2c(ncn2[C@@H]2O[C@@H]3COP(=O)(O)O[C@H]4[C@@H](O)[C@H](n5cnc6c(=O)[nH]c(N)nc65)O[C@@H]4COP(=O)(O)O[C@H]3[C@H]2O)c(=O)[nH]1 and its pKd for DnYcgR was 6.52

###

STUDY_SYSTEM: EcYcgR (Escherichia coli, UniProt P76010)
Sequence (P76010 1-244): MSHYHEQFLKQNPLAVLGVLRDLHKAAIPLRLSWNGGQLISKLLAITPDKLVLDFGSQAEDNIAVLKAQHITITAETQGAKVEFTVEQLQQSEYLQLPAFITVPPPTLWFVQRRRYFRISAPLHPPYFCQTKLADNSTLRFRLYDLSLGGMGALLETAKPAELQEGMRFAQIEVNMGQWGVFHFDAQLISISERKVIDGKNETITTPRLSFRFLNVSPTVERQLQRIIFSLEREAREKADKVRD
ENDPOINT_LABEL: Kd

Hey, EcYcgR (Escherichia coli, UniProt P76010) data for Nc1nc2c(ncn2[C@@H]2O[C@@H]3COP(=O)(O)O[C@H]4[C@@H](O)[C@H](n5cnc6c(=O)[nH]c(N)nc65)O[C@@H]4COP(=O)(O)O[C@H]3[C@H]2O)c(=O)[nH]1 [c-di-GMP] : Kd came out at 354 nM

###

STUDY_SYSTEM: CbYcgR
TEST_DESCRIPTION: chemiluminescence
MEASUREMENT_CONTEXT: read-out: KD^a; 50 nM protein; 50 mM HEPES pH 7.2, 100 mM KCl, 10 mM DTT, 0.1% BSA; 28 °C
ENDPOINT_LABEL: Kd

The compound Nc1nc2c(ncn2[C@@H]2O[C@@H]3COP(=O)(O)O[C@H]4[C@@H](O)[C@H](n5cnc6c(=O)[nH]c(N)nc65)O[C@@H]4COP(=O)(O)O[C@H]3[C@H]2O)c(=O)[nH]1 [c-di-GMP] , tested on CbYcgR, showed Kd of < 50 nM

###

STUDY_SYSTEM: TbYcgR
TEST_DESCRIPTION: chemiluminescence
MEASUREMENT_CONTEXT: read-out: KD^a; 50 nM protein; 50 mM HEPES pH 7.2, 100 mM KCl, 10 mM DTT, 0.1% BSA; 28 °C
pKd: −log10 of the molar value.
ENDPOINT_LABEL: pKd

Please fill in: pKd reported for Nc1nc2c(ncn2[C@@H]2O[C@@H]3COP(=O)(O)O[C@H]4[C@@H](O)[C@H](n5cnc6c(=O)[nH]c(N)nc65)O[C@@H]4COP(=O)(O)O[C@H]3[C@H]2O)c(=O)[nH]1 = > 7.30

###

STUDY_SYSTEM: CpYcgR
TEST_DESCRIPTION: chemiluminescence
MEASUREMENT_CONTEXT: read-out: KD^a; 50 nM protein; 50 mM HEPES pH 7.2, 100 mM KCl, 10 mM DTT, 0.1% BSA; 28 °C
ENDPOINT_LABEL: Kd

Kd on CpYcgR for Nc1nc2c(ncn2[C@@H]2O[C@@H]3COP(=O)(O)O[C@H]4[C@@H](O)[C@H](n5cnc6c(=O)[nH]c(N)nc65)O[C@@H]4COP(=O)(O)O[C@H]3[C@H]2O)c(=O)[nH]1 is < 50 nM

###

STUDY_SYSTEM: BtYcgR
TEST_DESCRIPTION: chemiluminescence
MEASUREMENT_CONTEXT: read-out: KD^a; 50 nM protein; 50 mM HEPES pH 7.2, 100 mM KCl, 10 mM DTT, 0.1% BSA; 28 °C
ENDPOINT_LABEL: Kd (nM)
I only need the number, in nM, no unit after it.

Memo: Nc1nc2c(ncn2[C@@H]2O[C@@H]3COP(=O)(O)O[C@H]4[C@@H](O)[C@H](n5cnc6c(=O)[nH]c(N)nc65)O[C@@H]4COP(=O)(O)O[C@H]3[C@H]2O)c(=O)[nH]1 , reported Kd: 286
